Target: USP1/UAF1 enzyme (Homo sapiens, UniProt O94782)
Sequence (O94782 whole entry): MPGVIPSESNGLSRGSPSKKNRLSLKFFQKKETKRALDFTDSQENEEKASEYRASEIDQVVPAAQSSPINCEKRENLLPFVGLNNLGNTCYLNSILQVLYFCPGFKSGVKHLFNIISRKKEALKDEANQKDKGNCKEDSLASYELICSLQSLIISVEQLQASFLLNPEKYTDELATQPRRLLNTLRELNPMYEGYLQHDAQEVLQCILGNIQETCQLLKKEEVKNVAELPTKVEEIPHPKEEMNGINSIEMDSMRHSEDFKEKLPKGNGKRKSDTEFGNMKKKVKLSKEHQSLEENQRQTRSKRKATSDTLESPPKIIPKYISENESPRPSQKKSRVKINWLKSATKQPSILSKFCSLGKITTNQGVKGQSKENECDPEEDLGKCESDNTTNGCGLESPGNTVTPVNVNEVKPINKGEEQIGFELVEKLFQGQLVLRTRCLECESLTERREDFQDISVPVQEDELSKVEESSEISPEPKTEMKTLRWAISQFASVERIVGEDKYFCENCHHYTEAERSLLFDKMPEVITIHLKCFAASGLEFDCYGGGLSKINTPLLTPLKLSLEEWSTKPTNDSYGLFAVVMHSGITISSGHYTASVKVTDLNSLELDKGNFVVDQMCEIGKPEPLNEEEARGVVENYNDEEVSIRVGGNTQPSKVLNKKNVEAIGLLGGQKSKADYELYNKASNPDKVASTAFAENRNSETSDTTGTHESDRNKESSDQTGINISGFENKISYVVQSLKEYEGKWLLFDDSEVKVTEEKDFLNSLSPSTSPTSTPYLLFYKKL
Sequence (Q8TAF3 whole entry partner): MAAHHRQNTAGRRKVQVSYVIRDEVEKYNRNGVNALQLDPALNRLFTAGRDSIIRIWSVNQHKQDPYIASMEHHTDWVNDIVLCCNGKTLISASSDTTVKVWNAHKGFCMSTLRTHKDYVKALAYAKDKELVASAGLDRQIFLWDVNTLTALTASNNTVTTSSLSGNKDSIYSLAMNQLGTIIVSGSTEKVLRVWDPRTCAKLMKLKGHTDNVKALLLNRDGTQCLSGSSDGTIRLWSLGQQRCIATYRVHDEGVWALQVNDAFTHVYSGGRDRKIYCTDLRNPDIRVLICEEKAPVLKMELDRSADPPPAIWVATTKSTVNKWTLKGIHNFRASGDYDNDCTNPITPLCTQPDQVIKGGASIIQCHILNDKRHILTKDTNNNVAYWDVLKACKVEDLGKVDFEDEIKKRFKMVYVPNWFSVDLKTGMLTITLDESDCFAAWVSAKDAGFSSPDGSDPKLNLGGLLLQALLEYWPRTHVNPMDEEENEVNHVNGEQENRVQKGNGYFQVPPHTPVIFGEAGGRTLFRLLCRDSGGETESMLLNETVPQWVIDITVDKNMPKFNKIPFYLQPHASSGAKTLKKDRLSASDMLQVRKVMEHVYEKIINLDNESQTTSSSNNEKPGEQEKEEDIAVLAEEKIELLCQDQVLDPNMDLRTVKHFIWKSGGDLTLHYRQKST
Experiment: USP1/UAF1 deubiquitination assay (ubiquitin-rhodamine 110 substrate)
Type: biochemical
Conditions: read-out: USP1 IC50 (Ub-Rho)
pIC50: −log10 of the molar value.
# Lookup of reported pIC50 keyed by entry

Some compounds with known pIC50 results, for comparison:
compound: CCn1cc(C(F)(F)F)nc1-c1ccc(C(C)N2C(=O)CCn3nc(-c4c(OC)ncnc4C4CC4)cc32)cc1F (centres unmarked)
reported-result: > 7.00

compound: CC(C)n1ncc(Cl)c1-c1cc2n(n1)CCC(=O)N2Cc1ccc(-c2cn(C)c(C(F)(F)F)n2)c(F)c1
reported-result: 6.30 to 7.00

Tell me measured pIC50 for `Cc1cnn(C(C)C)c1-c1nc2n(n1)CCC(=O)N2Cc1ccc(-c2nc(C(F)(F)F)cn2C(C)C)cc1` please.
> 7.00

Tell me measured pIC50 for `COc1ccnc(C2CC2)c1-c1nc2n(n1)CCC(=O)N2Cc1ccc(-c2nc(C(F)(F)F)cn2C(C)C)c(F)c1` please.
6.30 to 7.00

Tell me measured pIC50 for `CC(C)n1ncc(Cl)c1-c1cc2n(n1)CCC(=O)N2Cc1ccc(-c2nn(C)cc2C#N)cc1` please.
> 7.00

Tell me measured pIC50 for `CC(C)n1ncc(Cl)c1-c1cc2n(n1)CCC(=O)N2Cc1ccc(-c2ncccc2N(C)C)c(Cl)c1` please.
> 7.00

Tell me measured pIC50 for `COc1ncnc(C2CC2)c1-c1nc2n(n1)CCC(=O)N2[C@@H](C)c1ccc(-c2nc(C(F)(F)F)cn2C2CC2)cc1` please.
6.30 to 7.00

Tell me measured pIC50 for CCn1cc(C(F)(F)F)nc1-c1ccc(CN2C(=O)CCn3nc(-c4c(Cl)cnn4C(C)COC)cc32)cc1 (centres unmarked) please.
> 7.00

Tell me measured pIC50 for CCn1cc(C(F)(F)F)nc1-c1ccc(CC2OCCn3nc(-c4c(Cl)cnn4C(C)C)cc32)cc1 (centres unmarked) please.
> 7.00

Tell me measured pIC50 for COc1ncnc(C2CC2)c1-c1cc2n(n1)C(C)CCN2Cc1ccc(-c2nc(C(F)(F)F)cn2C)cc1 (racemic) please.
> 7.00
